Test: Cereulide in organs and tissues, SIDA-MS
Assay type: in vivo, pig
Settings: pig, subcutaneous fat, 10 ug/kg; daily oral dose 10 μg kg^-1 for 7 days, SIDA-MS; read-out: Cereulide concentration in subcutaneous fat, average
measured metric: tissue level at time at 168 h (ng/g)
Enter your answer as a number in ng/g; do not include the unit.

Query :: Look up and state reported tissue level at time at 168 h for CC(C)C[C@H]1OC(=O)[C@H](C(C)C)NC(=O)[C@H](C(C)C)OC(=O)[C@@H](C)NC(=O)[C@@H](CC(C)C)OC(=O)[C@H](C(C)C)NC(=O)[C@H](C(C)C)OC(=O)[C@@H](C)NC(=O)[C@@H](CC(C)C)OC(=O)[C@H](C(C)C)NC(=O)[C@H](C(C)C)OC(=O)[C@@H](C)NC1=O [cereulide]
Result :: 0.04

* * *

Test: Cereulide in organs and tissues, SIDA-MS
Type: in vivo, pig
Details: pig, kidney, 150 ug/kg; single oral dose 150 μg kg^-1, necropsy after 48 h, SIDA-MS; read-out: Cereulide concentration in kidney, average
measured metric: tissue level at time at 48 h (ng/g)
Enter your answer as a number in ng/g; do not include the unit.

Query :: Look up and state reported tissue level at time at 48 h for CC(C)C[C@H]1OC(=O)[C@H](C(C)C)NC(=O)[C@H](C(C)C)OC(=O)[C@@H](C)NC(=O)[C@@H](CC(C)C)OC(=O)[C@H](C(C)C)NC(=O)[C@H](C(C)C)OC(=O)[C@@H](C)NC(=O)[C@@H](CC(C)C)OC(=O)[C@H](C(C)C)NC(=O)[C@H](C(C)C)OC(=O)[C@@H](C)NC1=O [cereulide]
Result :: 0.21

* * *

Test: Cereulide in organs and tissues, SIDA-MS
Assay type: in vivo, pig
Conditions: pig, small intestine, 150 ug/kg; single oral dose 150 μg kg^-1, necropsy after 48 h, SIDA-MS; read-out: Cereulide concentration in small intestine, average
measured metric: tissue level at time at 48 h (ng/g)
Enter your answer as a number in ng/g; do not include the unit.

Query :: Look up and state reported tissue level at time at 48 h for CC(C)C[C@H]1OC(=O)[C@H](C(C)C)NC(=O)[C@H](C(C)C)OC(=O)[C@@H](C)NC(=O)[C@@H](CC(C)C)OC(=O)[C@H](C(C)C)NC(=O)[C@H](C(C)C)OC(=O)[C@@H](C)NC(=O)[C@@H](CC(C)C)OC(=O)[C@H](C(C)C)NC(=O)[C@H](C(C)C)OC(=O)[C@@H](C)NC1=O [cereulide]
Result :: 1.34

* * *

Test: Cereulide in organs and tissues, SIDA-MS
Assay type: in vivo, pig
Settings: pig, content of large intestine, 30 ug/kg; single oral dose 30 μg kg^-1, necropsy after 48 h, SIDA-MS; read-out: Cereulide concentration in content of large intestine, average
Protocol: A total of four experiments, each including four treated animals and one control pig, was performed to investigate the action of cereulide on piglets after oral intake of cereulide. […] Blood-chemical, immunological, and histological analyses of selected organs as well as quantification of cereulide in organs, tissues, urine and feces were carried out as detailed below. […]
measured metric: tissue level at time at 48 h

Query :: Look up and state reported tissue level at time at 48 h for CC(C)C[C@H]1OC(=O)[C@H](C(C)C)NC(=O)[C@H](C(C)C)OC(=O)[C@@H](C)NC(=O)[C@@H](CC(C)C)OC(=O)[C@H](C(C)C)NC(=O)[C@H](C(C)C)OC(=O)[C@@H](C)NC(=O)[C@@H](CC(C)C)OC(=O)[C@H](C(C)C)NC(=O)[C@H](C(C)C)OC(=O)[C@@H](C)NC1=O [cereulide]
Result :: 0.07 ng/g
